# Kd listing for each entry below
molecular target: T1, biotinylated human VWF cysteine knot (CK) domain construct (human, UniProt P04275 2724-2813, biotinylated in vitro (BirA) on the biotinylation tag; one N-glycan); experiment: SPR, scFv captured via anti-SV5, CK domain injected, pH 5.5, apparent Kd;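 further: scFvs from crude yeast supernatants captured on chip-bound anti-SV5 antibody, Kd computed as koff divided by kon, dimeric CK construct likely makes affinity appear higher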
T1 construct: Expressed in HEK293 EBNA cells; disulfide-linked homodimer; also called human VWF CK; human VWF CK domain; not shown: in vitro biotinylation tag, HRV-3C site and 3 VWF residues before the CK domain
Please format your answer as a value with the unit trailing.

binder	Kd
Lib4_P2_B1_scFv (scFv, VH-linker-VL; not shown: C-terminal 3xFLAG and SV5 tags) scFv: QVQLVQSGAEVKKPGASVKVSCKVSGDTLSNYAIHWVRQAPGKGLEWMGGINPNAGTTIYAQKFQGRVTMTEDTSTDTAYMELSSLKSEDTAVYYCARDSSSWCPVGYYYYYMDVWGKGTTVTVSSSGGSTITSYNVYYTKLSSSGTDIQMTQSPSSVSASVGDRVTITCRASQSIGDFLAWYQQKPGKAPKLLIYDASHLQTGVPSRFSGSGSGTDFTLTISSLQPEDFANYYCQQTSTIPPTFGGGTKVEIK	2.12 nM

Task: Record request: Kd value, item Lib6_P3_A1_scFv (scFv, VH-linker-VL; not shown: C-terminal 3xFLAG and SV5 tags) scFv: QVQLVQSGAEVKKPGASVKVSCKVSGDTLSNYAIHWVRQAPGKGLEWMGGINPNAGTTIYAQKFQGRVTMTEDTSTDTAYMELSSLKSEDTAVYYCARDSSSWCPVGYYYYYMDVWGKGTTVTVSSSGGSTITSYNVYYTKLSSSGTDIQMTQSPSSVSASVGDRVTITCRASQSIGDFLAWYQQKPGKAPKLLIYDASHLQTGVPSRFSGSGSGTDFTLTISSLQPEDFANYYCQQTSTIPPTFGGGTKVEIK
Result: 1.32 nM

Task: Would you kindly share the measured Kd for 76_Lib4_scFv (scFv, VH-linker-VL; not shown: C-terminal 3xFLAG and SV5 tags) scFv: QVQLQESGPGLVKPSQTLSLTCTVSGVSISNHYWSWIRQPPGKGLEWIGYIDESGSTDYNPSLKSRVTMSVDTSKNQFSLKVNSVTAADTAVYYCARVSWGYYAMDVWGQGTTVTVSSSGGSTITSYNVYYTKLSSSGTEIVMTQSPATLSLSPGERATLSCRASQGVSGHLAWYQQKPGQAPRLLIYETSKRATGIPARFSGSGSGTDFTLTISSLEPEDFAVYYCQQYNDYPLGFGGGTKVEIK ?
Result: 0.366 nM
